biological target: human MC3-receptor (Homo sapiens, UniProt P41968); construct: expressed in transfected cells; host or cells: COS (COS-1) cells, transient, 48 h; assay: Competition for [125I]NDP-MSH binding to recombinant human MC3-receptor in COS cells; conditions: [125I]NDP-MSH competition, transfected COS cells
Sequence (P41968 whole entry): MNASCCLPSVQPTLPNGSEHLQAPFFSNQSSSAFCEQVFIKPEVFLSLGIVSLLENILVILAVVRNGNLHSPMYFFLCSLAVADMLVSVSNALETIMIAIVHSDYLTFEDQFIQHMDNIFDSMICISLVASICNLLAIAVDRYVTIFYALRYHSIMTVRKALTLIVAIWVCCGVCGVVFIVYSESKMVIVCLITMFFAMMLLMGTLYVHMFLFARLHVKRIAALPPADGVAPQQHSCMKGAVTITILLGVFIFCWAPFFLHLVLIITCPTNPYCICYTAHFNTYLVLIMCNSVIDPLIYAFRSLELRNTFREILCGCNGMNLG
Ends that are not written are not given here.
Parameter: pKi
Scale note: pKi = -log10(concentration in M).

Ask | What value of pKi on human MC3-receptor (Homo sapiens, UniProt P41968) does SSIISHFRWGKPV-NH2 [MS05] have?
Reply | 5.86

###

target: human MC5-receptor (Homo sapiens); construct: expressed in transfected cells; host or cells: COS (COS-1) cells, transient, 48 h; test: Competition for [125I]NDP-MSH binding to recombinant human MC5-receptor in COS cells; details: [125I]NDP-MSH competition, transfected COS cells
Sequence (P33032 whole entry): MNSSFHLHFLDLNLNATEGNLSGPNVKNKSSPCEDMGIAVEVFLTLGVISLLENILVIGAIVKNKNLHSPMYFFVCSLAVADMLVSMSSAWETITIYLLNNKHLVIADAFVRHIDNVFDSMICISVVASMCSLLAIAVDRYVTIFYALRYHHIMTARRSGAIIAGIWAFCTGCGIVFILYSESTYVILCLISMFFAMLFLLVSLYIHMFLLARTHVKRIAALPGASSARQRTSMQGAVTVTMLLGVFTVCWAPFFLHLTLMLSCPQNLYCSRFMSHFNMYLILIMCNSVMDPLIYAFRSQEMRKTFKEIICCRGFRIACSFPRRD
pKi: −log10 of the molar value. Ends that are not written are not given here.
Parameter: pKi

Ask | Please look up its pKi: SSIISHFRWGKPV-NH2 [MS05]
Reply | < 4.30
